# maps each entry to its selectivity ratio
Assay: in vitro
Settings: human, MRC5 SV2 cells
Description: Selectivity index, ratio of IC50 for human MRC5 SV2 cells to IC50 for Trypanosoma cruzi Tulahuen CL2 amastigotes infected in human MRC5 SV2 cells
Just the number.

Examples with answers:
CN(C(=O)c1ccccc1)c1cccc(-c2cc3ncccc3[nH]2)c1
3.59
CN(CCc1cc2ncccc2[nH]1)C(=O)c1ccccc1
1.75
O=C(c1cc(C2CC2)on1)N1CCCC(c2cc3ncccc3[nH]2)C1 (stereo unspecified)
8.15

[ask] For the molecule CC(C)(C)c1cc(C(=O)N2CCCC(c3cc4ncccc4[nH]3)C2)on1 (stereo unspecified) , what selectivity ratio is on record?
[reply] 29.4

[ask] // next record CC(C)c1cc(C(=O)N2CCCC(O)(c3cc4ncccc4n3S(=O)(=O)c3ccccc3)C2)on1 (stereo unspecified)
[reply] 1.26

[ask] Similarly, COc1ccc(C(=O)N2CCCC(c3cc4ncccc4[nH]3)C2)cc1OC (stereo unspecified) ?
[reply] 7.15

[ask] Another molecule: COc1cccc2[nH]c(C(=O)N3CCCC(c4cc5ncccc5[nH]4)C3)cc12 (stereo unspecified)
[reply] 29.4

* * *

System: Trypanosoma brucei rhodesiense
Experiment: microbe, parasite or virus in culture
Conditions: STIB900, 72 h
Description: Antiprotozoal activity against Trypanosoma brucei rhodesiense STIB900 trypomastigotes incubated for 72 hrs by resazurin dye based fluorimetric analysis
reported endpoint: IC90 (µM)
Kindly provide the numeric value in µM only, without the unit symbol.

Example results:
Cc1nc(C)c(C(=O)N2CCCC(c3cc4ncccc4[nH]3)C2)s1 (stereo not drawn)
64
CC(=O)N1C=C(c2cc3ncccc3[nH]2)CCC1
64

Kindly consider the entry below.
[ask] // query IC90 value for entry O=S(=O)(c1ccccc1)N1CC=C(c2cc3ncccc3[nH]2)CC1
[reply] 64

* * *

# Lookup of reported logD keyed by entry
Experiment: physchem
Details: buffer, pH 7.4
Description: Lipophilicity, logD of compound at pH 7.4 by HPLC analysis
The response must contain the number and no unit.

[ask] # query: logD of entry O=C(c1ccccc1)N1C=C(c2cc3ncccc3[nH]2)CCC1
[reply] 2.96

[ask] How about this molecule: CC(C)(C)OC(=O)N1CCCC(c2cn3nc(Cl)ccc3n2)C1 (centres undefined)
[reply] 4.04

[ask] Try this molecule next: O=C(c1cc(C(F)(F)F)no1)N1CCCC(c2cc3ncccc3[nH]2)C1 (centres undefined)
[reply] 3.42

[ask] Please give the result for O=C(c1cc(C(F)(F)F)no1)N1CCCC(c2cc3ncc(Br)cc3[nH]2)C1 (centres undefined) too.
[reply] 4.27

[ask] Also need O=C(NCCc1nc2ncc(Cl)cc2[nH]1)c1ccccc1 , thanks.
[reply] 2.49

* * *

Assay: physchem
Conditions: buffer, pH 7.4
reported endpoint: logD
Give the figure only, with no unit attached.

A selection of reference data follows.
O=C(CCc1nc2ncc(Cl)cc2[nH]1)Nc1ccccc1
2.81
O=C(Nc1ccc(-c2cc3ncccc3[nH]2)cc1)c1ccccc1
3.86
Cc1ccoc1C(=O)N1CCCC(c2cc3ncccc3[nH]2)C1 (stereo not drawn)
2.86
CN(CC(O)c1cc2ncccc2n1S(=O)(=O)c1ccccc1)C(=O)c1ccccc1 (stereo not drawn)
3.31
O=C1c2ccccc2CN1CCc1cc2ncccc2[nH]1
2.19

[ask] For the compound shown here, CCN(CCc1nc2ncc(Cl)cc2[nH]1)C(=O)c1ccc(F)cc1 , give the reported logD.
[reply] 2.79

[ask] O=C(c1ccccc1)N1CC=C(c2cc3ccccc3[nH]2)CC1 , same question.
[reply] 4.15

[ask] Also O=C(c1ccccc1)N1CCCC(c2cn3cccnc3n2)C1 (stereo not drawn) , if possible.
[reply] 1.71

[ask] // query: OC1(c2cc3ncccc3[nH]2)CCN(Cc2ccccc2)CC1
[reply] 2.13

[ask] # iterate: CN(C(=O)c1ccccc1)c1cccc(-c2cc3ncccc3[nH]2)c1
[reply] 3.3

[ask] // next record O=C(c1ccc(F)cc1)N1CCCC(c2cc3nc(N4CCCC4)ccc3[nH]2)C1 (stereo not drawn)
[reply] 3.45

[ask] What about this compound? CN(CCc1cc2ncccc2[nH]1)C(=O)c1ccccc1
[reply] 1.88
